# target or system: mouse CB2 (mCB2) (Mus musculus)
# Sequence (P47936 whole entry): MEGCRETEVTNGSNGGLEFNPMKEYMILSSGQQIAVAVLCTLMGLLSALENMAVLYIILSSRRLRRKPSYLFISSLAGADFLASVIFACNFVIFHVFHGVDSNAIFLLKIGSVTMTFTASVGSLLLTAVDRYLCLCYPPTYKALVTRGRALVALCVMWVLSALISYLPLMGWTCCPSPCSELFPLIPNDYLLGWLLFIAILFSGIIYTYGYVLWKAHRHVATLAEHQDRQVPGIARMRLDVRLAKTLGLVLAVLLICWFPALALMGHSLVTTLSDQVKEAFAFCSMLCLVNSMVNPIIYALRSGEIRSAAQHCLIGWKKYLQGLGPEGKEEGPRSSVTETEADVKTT
endpoint name: Ki (nM)
Write down the numeric answer in nM and omit the unit.

Challenge: Record request: Ki value, item CCCCCCC(C)(C)c1cc(O)c2c(c1)oc(=O)c1ccc(OC)cc12
Response given: 17

Just for reference, paper PMC3089437 is where these values come from.
